Biological target: WT STING (Homo sapiens, UniProt Q86WV6, H232R)
Experiment: Differential Scanning Fluorimetry with WT STING
Type: binding
Design: 8xHis (N, cleaved yes); SUMO (N, cleaved yes); made in house; host or cells: E. coli Rosetta-gami B (DE3)
Settings: thermal shift vs apoprotein; 150 µM CDN; truncated human WT STING 0.1 mg/ml; read-out: DSF ΔTm WT STING
Sequence (Q86WV6 140-343 H232R): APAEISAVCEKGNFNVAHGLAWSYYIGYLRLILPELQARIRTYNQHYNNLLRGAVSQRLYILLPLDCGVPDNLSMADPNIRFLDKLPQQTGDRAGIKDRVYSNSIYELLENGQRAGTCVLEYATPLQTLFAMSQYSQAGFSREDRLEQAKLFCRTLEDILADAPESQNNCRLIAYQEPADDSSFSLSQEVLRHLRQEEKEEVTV
Please provide measured ΔTm at 150 µM for the entries that follow.
Answers are plain numbers, in °C.

In the examples that follow, each entry is paired with its recorded ΔTm at 150 µM.
Nc1ncnc2c1ncn2[C@@H]1O[C@@H]2/C=C/P(=O)(O)O[C@H]3[C@@H](F)[C@H](n4cnc5c(N)ncnc54)O[C@@H]3COP(=O)(O)O[C@H]2[C@H]1F: 6.9
Nc1nc2c(ncn2[C@@H]2O[C@@H]3/C=C/P(=O)(O)O[C@H]4[C@@H](F)[C@H](n5cnc6c(=O)[nH]c(N)nc65)O[C@@H]4COP(=O)(O)O[C@H]3[C@H]2F)c(=O)[nH]1: 4.1

Next up:
Field: ΔTm at 150 µM (WT STING (Homo sapiens, UniProt Q86WV6, H232R)). Entry: Nc1nc2c(ncn2[C@@H]2O[C@@H]3/C=C\P(=O)(O)O[C@H]4[C@@H](N)[C@H](n5cnc6c(N)ncnc65)O[C@@H]4COP(=O)(O)O[C@H]3[C@H]2O)c(=O)[nH]1 0.3

----------
Biological target: WT STING (Homo sapiens, UniProt Q86WV6, H232R)
Assay: Digitonin assay using 293T wtSTING-FL reporter cells
Format: cell-based
Settings: 293T wtSTING-FL cells; 30 minutes in Digitonin buffer, then 5 hours; ISRE firefly luciferase reporter
Sequence (Q86WV6 whole entry H232R): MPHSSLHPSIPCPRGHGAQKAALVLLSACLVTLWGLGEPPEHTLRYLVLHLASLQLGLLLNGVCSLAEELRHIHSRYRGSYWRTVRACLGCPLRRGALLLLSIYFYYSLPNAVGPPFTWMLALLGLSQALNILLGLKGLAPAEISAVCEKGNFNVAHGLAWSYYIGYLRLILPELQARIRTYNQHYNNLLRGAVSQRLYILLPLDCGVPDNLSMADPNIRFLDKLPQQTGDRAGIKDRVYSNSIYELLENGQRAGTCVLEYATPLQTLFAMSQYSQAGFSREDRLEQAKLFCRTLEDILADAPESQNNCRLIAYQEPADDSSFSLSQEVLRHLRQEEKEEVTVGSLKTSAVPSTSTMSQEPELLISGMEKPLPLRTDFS
Labelling field: enter Met if recorded EC50 is less than 0.7 µM. Enter Not met if it equals or exceeds that cut-off.

Solved entries:
Nc1nc2c(ncn2[C@@H]2O[C@@H]3/C=C\P(=O)(O)O[C@H]4C[C@H](n5cnc6c(N)nc(F)nc65)O[C@@H]4COP(=O)(O)O[C@H]3[C@H]2O)c(=O)[nH]1: Not met
Nc1nc2c(ncn2[C@@H]2O[C@@H]3/C=C/P(=O)(O)O[C@H]4[C@@H](F)[C@H](n5cnc6c(=O)[nH]c(N)nc65)O[C@@H]4COP(=O)(O)O[C@H]3[C@H]2F)c(=O)[nH]1: Met
Nc1nc2c(ncn2[C@@H]2O[C@@H]3COP(=O)(O)O[C@H]4[C@@H](O)[C@H](n5cnc6c(=O)[nH]c(N)nc65)O[C@@H]4COP(=O)(O)O[C@H]3[C@H]2O)c(=O)[nH]1 [3′3′c-di-GMP, 3′3′-c-di-GMP, reference compound]: Not met
Nc1nc2c(ncn2[C@@H]2O[C@@H]3/C=C\P(=O)(O)O[C@H]4[C@@H](N)[C@H](n5cnc6c(N)ncnc65)O[C@@H]4COP(=O)(O)O[C@H]3[C@H]2O)c(=O)[nH]1: Not met

Please state whether EC50 is below 0.7 µM for Nc1nc(N)c2ncn([C@@H]3O[C@@H]4COP(=O)(O)O[C@H]5[C@@H](O)[C@H](n6cnc7c(=O)[nH]c(N)nc76)O[C@@H]5/C=C\P(=O)(O)O[C@H]4[C@H]3O)c2n1 (stereo in doubt) Not met

Decide: EC50 of Nc1ncnc2c1ncn2[C@@H]1O[C@@H]2/C=C/P(=O)(O)O[C@H]3C[C@H](n4cnc5c(N)ncnc54)O[C@@H]3COP(=O)(O)O[C@H]2[C@H]1F strictly below 0.7 µM? Met

API: query returns whether the compound falls strictly under 0.7 µM in EC50. Query: Nc1nc2c(ncn2[C@@H]2O[C@@H]3COP(=O)(O)O[C@@H]4[C@H](O)[C@@H](COP(=O)(O)O[C@@H]2[C@@H]3O)O[C@H]4n2cnc3c(N)ncnc32)c(=O)[nH]1 [2′2′-cGAMP, reference compound] Met

Take the compound CSc1ncnc2c1ncn2[C@@H]1O[C@@H]2COP(=O)(O)O[C@H]3[C@@H](O)[C@H](n4cnc5c(=O)[nH]c(N)nc54)O[C@@H]3/C=C\P(=O)(O)O[C@H]2[C@H]1O (stereo in doubt) and say whether its EC50 is less than 0.7 µM. Not met
